# system.under.test: GABARAP, O95166
# Sequence (O95166 whole entry, the tested form may be a part): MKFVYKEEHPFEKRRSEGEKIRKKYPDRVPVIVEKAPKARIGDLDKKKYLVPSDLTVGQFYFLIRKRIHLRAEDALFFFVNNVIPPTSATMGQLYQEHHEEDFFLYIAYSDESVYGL
# test.method.notes: median log2 fold change of GCK-ALFA target abundance (FLAG IP / Myc IP barcode read proportion) (log2 ratio); each designed protein is fused to an ALFA-tag nanobody in HEK293 cells to bring the named protein to FLAG-tagged glucokinase (GCK); Myc marks an untargeted standard; higher = target protein stabilised (more abundant)
# condition.summary: target protein: 3xFLAG-MCP-GCK-ALFA reporter; HEK293 landing pad (RPLP)
In all, about 4,500 sequences were measured (“median log2 fold change of GCK-ALFA target abundance (FLAG IP / Myc IP barcode read proportion)”: median about 0.078, lowest 2% from about -0.6 on). This is one part of a sample in which the lowest values are shown more often than they occur.
metric.name: median log2 fold change
Returns: the value as a bare number; no unit string appended.

binder	median log2 fold change
GBRAP_128_3320 (protein) MDEELLAEFKELAEAAKKADLPTLAKLTAEMVALIGQADAETREEMAEIFRKALEELDAEKLDVVADTLRAEMPKLDPEAARVVADLAVDALNLAEEKEE	0.0824

Turning now to a further record.
Just so you know, measured median log2 fold change for GBRAP_52_5907 (protein) MKEELEKILNEIIEAVKAGKLEEARKIARELAEKYDDETLEEFIELFAEMVLEAPEEDLPYYWKAAEILAEEFEREGKDEVLADLLLSRTAAAIYEKLQR came out at -0.881
